The reported measurements were obtained from patent US20260028365A1.

Molecular target: JH2 domain of human Tyk2 (Homo sapiens (Human))
Sequence (P29597 575-876): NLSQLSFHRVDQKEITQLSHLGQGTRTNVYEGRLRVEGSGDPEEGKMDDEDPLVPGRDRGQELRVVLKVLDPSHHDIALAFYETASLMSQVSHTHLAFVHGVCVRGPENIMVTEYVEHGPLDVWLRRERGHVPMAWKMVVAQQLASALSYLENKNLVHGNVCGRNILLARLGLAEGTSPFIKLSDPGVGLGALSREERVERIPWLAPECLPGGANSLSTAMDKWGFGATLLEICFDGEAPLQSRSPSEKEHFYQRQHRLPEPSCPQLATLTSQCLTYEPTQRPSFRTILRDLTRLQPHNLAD
Experiment: JH2 Biochemical Assay (TR-FRET probe displacement)
Assay type: binding
Conditions: JH2 domain of human Tyk2, TR-FRET probe displacement
Structures can show the parent of a compound that is named as a salt.
Below, each of the molecules is paired with its reported IC50 value.

[
  {
    "molecule": "CC(=O)Nc1cc(Nc2cc(C)nc(C34COC(C3)C4)n2)c(-c2ccc(C(F)F)cn2)cn1",
    "reported endpoint": "IC50",
    "recorded measurement": "≤ 10 nM"
  },
  {
    "molecule": "COC(C)c1ccc(-c2cnc(NC(C)=O)cc2Nc2cc(C)nc(C34COC(C3)C4)n2)nc1 (centres unmarked)",
    "reported endpoint": "IC50",
    "recorded measurement": "≤ 10 nM"
  },
  {
    "molecule": "CC(=O)Nc1cc(Nc2cc(C)nc(C(C)(F)F)n2)c(-c2cn3ccnc3cn2)cn1",
    "reported endpoint": "IC50",
    "recorded measurement": "≤ 10 nM"
  },
  {
    "molecule": "CCOc1cnc(NC(C)=O)cc1Nc1cc(OC2CC(F)C2)nc(C(C)(F)F)n1 (centres unmarked) [Example 457, trifluoroacetate]",
    "reported endpoint": "IC50",
    "recorded measurement": "≤ 10 nM"
  },
  {
    "molecule": "CC(=O)Nc1cc(Nc2cc(OC3CC3)nc(C(C)(F)F)n2)c(OC[C@@H]2COCCO2)cn1 (single isomer, unassigned)",
    "reported endpoint": "IC50",
    "recorded measurement": "≤ 10 nM"
  },
  {
    "molecule": "CC(=O)Nc1cc(Nc2cc(C)nc(C34COC(C)(C3)C4)n2)c(-c2ccn(C)n2)cn1",
    "reported endpoint": "IC50",
    "recorded measurement": "10 to 100 nM"
  }
]

Task: Consider the molecule `CC(=O)Nc1cc(Nc2cc(C)nc(C(C)(F)F)n2)c(-c2nc(C)co2)cn1` and give its measured IC50.
Result: ≤ 10 nM

---

Below, each of the compounds is paired with its reported pIC50 value.
Target: Tyk2 (Homo sapiens (Human), UniProt P29597)
Sequence (P29597 whole entry): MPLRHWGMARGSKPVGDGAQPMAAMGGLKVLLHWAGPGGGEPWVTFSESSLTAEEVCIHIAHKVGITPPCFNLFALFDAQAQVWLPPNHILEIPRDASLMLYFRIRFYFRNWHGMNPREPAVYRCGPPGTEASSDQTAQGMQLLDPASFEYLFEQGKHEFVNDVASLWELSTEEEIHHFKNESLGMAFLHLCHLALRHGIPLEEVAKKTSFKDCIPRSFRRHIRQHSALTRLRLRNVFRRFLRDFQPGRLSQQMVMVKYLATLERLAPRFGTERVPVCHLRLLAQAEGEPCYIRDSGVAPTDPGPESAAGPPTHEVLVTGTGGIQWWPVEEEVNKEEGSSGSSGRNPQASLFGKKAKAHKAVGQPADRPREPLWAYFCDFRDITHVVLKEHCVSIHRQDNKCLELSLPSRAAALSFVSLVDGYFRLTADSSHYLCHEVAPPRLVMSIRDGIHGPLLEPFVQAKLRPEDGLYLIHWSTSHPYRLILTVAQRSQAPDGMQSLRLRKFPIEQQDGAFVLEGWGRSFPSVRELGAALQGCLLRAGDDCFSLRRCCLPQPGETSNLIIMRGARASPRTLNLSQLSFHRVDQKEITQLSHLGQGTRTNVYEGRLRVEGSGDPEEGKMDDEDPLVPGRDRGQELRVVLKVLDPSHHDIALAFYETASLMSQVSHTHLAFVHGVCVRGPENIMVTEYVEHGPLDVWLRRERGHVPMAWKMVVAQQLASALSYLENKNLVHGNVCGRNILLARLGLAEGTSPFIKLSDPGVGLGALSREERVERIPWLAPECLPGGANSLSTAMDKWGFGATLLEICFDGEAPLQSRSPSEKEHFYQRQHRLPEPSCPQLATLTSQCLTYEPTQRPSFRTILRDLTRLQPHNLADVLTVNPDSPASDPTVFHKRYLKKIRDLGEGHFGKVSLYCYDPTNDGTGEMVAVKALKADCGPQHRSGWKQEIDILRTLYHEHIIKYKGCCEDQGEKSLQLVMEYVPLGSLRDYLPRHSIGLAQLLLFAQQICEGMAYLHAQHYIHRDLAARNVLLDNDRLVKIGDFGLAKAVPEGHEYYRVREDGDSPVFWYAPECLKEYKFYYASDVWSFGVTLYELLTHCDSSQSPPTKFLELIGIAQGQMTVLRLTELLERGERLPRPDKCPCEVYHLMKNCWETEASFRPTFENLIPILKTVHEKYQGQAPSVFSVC
Assay: pSTAT4 Cell Assay (MSD, NK92 cells)
Format: cell-based
pIC50: −log10 of the molar value.

Recorded pIC50, per entry:
[
  {
    "compound": "CCc1cc(Nc2cc(NC(C)=O)ncc2-c2ccncn2)nc(C(C)(F)F)n1",
    "recorded measurement": "≥ 8.00"
  },
  {
    "compound": "COCCN(C)c1cnc(-c2cnc(NC(C)=O)cc2Nc2ccnc(C(C)(F)F)n2)cn1",
    "recorded measurement": "7.00 to 8.00"
  },
  {
    "compound": "COc1cc(Nc2ccnc(NC(C)=O)c2)nc(C(C)(F)F)n1",
    "recorded measurement": "≤ 6.00"
  },
  {
    "compound": "CC(=O)Nc1cc(Nc2ccnc(C(C)(F)F)n2)c(-c2cnn(CCN3CCOCC3)n2)cn1",
    "recorded measurement": "7.00 to 8.00"
  }
]

Proceeding to the next compound to report its pIC50.
Task: Consider the compound `COC(C)(C)c1cc(-c2cnc(NC(C)=O)cc2Nc2cc(C)nc(C(C)(F)F)n2)nn1C` and give its measured pIC50.
Result: ≥ 8.00
